test system: MiaPaCa-2 cells; assay: MiaPaCa-2 Cell proliferation assay in 3D culture (CCK8); format: cell-based; details: Homo sapiens, MIA PaCa-2, 120 h; 3D spheroid culture, 5 days with compound, CCK8 readout
READOUT: IC50

[
  {
    "COMPOUND STRING": "C[C@@H]1OCC2(CCN(c3cnc(Sc4ccnc(NC(=O)NS(=O)(=O)c5ccccc5F)c4Cl)cn3)CC2)[C@@H]1N",
    "IC50": "≤ 500 nM"
  },
  {
    "COMPOUND STRING": "CC1(N)CCN(c2cnc(Sc3cccc(C(=O)NS(=O)(=O)C4CC4)c3Cl)cn2)CC1",
    "IC50": "5000 to 50000 nM"
  },
  {
    "COMPOUND STRING": "C[C@@H]1OCC2(CCN(c3cnc(Sc4cccc(NS(=O)(=O)NC(=O)N5CCCC5)c4Cl)cn3)CC2)[C@@H]1N",
    "IC50": "≤ 500 nM"
  },
  {
    "COMPOUND STRING": "CC1(N)CCN(c2cnc(Sc3cccc(C(=O)NS(=O)(=O)C4CCCCC4)c3Cl)cn2)CC1",
    "IC50": "5000 to 50000 nM"
  },
  {
    "COMPOUND STRING": "CC1(N)CCN(c2cnc(Sc3cccc(S(=O)(=O)NC(=O)c4ccccc4)c3Cl)c(N)n2)CC1",
    "IC50": "5000 to 50000 nM"
  },
  {
    "COMPOUND STRING": "C[C@@H]1OCC2(CCN(c3cnc(Sc4ccnc(NC(=O)NS(=O)(=O)c5cnn(C)c5)c4Cl)cn3)CC2)[C@@H]1N",
    "IC50": "≤ 500 nM"
  },
  {
    "COMPOUND STRING": "CC1(CN)CCN(c2cnc(Sc3cccc(NC(=O)NS(C)(=O)=O)c3Cl)cn2)CC1",
    "IC50": "≤ 500 nM"
  },
  {
    "COMPOUND STRING": "CC1(CN)CCN(c2cnc(Sc3cccc(C(=O)NS(=O)(=O)c4ccccc4F)c3Cl)c(N)n2)CC1",
    "IC50": "500 to 5000 nM"
  }
]

Below are 6 molecules. Give each one its IC50.
1. C[C@@H]1OCC2(CCN(c3cnc(Sc4cccc(NC(=O)NS(=O)(=O)c5ccccc5)c4Cl)cn3)CC2)[C@@H]1N
2. CC1(N)CCN(c2cnc(Sc3cccc(C(=O)NS(C)(=O)=O)c3Cl)cn2)CC1
3. C[C@@H]1OCC2(CCN(c3cnc(Sc4cccc(NC(=O)NS(=O)(=O)N5CCOCC5)c4Cl)cn3)CC2)[C@@H]1N
4. CC1(CN)CCN(c2cnc(Sc3cccc(NC(=O)NS(=O)(=O)C4CC4)c3Cl)cn2)CC1
5. C[C@@H]1OCC2(CCN(c3cnc(Sc4ccnc(NC(=O)NS(=O)(=O)c5cccnc5)c4Cl)cn3)CC2)[C@@H]1N
6. C[C@@H]1OCC2(CCN(c3cnc(Sc4ccnc(NC(=O)NS(=O)(=O)C5CC5)c4Cl)cn3)CC2)[C@@H]1N

1: ≤ 500 nM; 2: 5000 to 50000 nM; 3: ≤ 500 nM; 4: ≤ 500 nM; 5: 500 to 5000 nM; 6: ≤ 500 nM

Note to self: IC50 recorded for CC1(CN)CCN(c2cnc(Sc3cccc(S(=O)(=O)NC(=O)c4ccccc4)c3Cl)cn2)CC1 was 500 to 5000 nM

Hey, just so you know, these numbers are from patent US20250109118A1.
